src = patent US3966745A

# ASSAY SUMMARY: Acute toxicity (LD50, mice, intraperitoneal)
# EXPERIMENTAL CONDITIONS: mouse, in vivo, ip; intraperitoneal administration; Swiss mice of both sexes; method of Miller and Tainter
PARAMETER: LD50 (mg/kg)
Answers are plain numbers, in mg/kg.

CC[C@]12CCCN3CCc4c(n(c5ccccc45)[C@@](O)(C(=O)OC)C1)[C@@H]32 [Vincamine, vincamine, reference compound]: 215

Hey, quick one: what's LD50 for each of these?
1. CCC12CCCN3CCc4c(n(c5ccccc45)C(C(=O)OCC4CC4)C1)C32 (stereo not shown) [SL 73-041, Cyclopropylmethyl desoxyvincaminate]
2. CCC12C=C(C(=O)OCC3CC3)n3c4c(c5ccccc53)CCN(CCC1)C42 (stereo not shown) [SL 73-005, Cyclopropylmethyl apovincaminate]
3. CCC12CCCN3CCc4c(n(c5ccccc45)C(O)(C(=O)OCC4CC4)C1)C32 (stereo not shown) [SL 72-401, Cyclopropylmethyl vincaminate]

[260, 380, 220]
